system: 639-V (Bladder Carcinoma); experiment: Bliss excess, mean over the matrix (fraction); higher = more synergy

# molecule, target-entity, Bliss excess
records = [
    ("Cc1c2c(nn1C)CSCc1cc(n(C)n1)CSc1cc(c3ccccc3c1)OCCCc1c(C(=O)O)n(C)c3c-2c(Cl)ccc13 [AZD5991] + C[C@@H]1COCCN1C2=NC(=NC(=C2)C3(CC3)[S@](=N)(=O)C)C4=C5C=CNC5=NC=C4 [AZD6738] (first compound max 1 µM, 7x7, partner max 10 µM)", "639-V (Bladder Carcinoma)", 0.0431),
]

* * *

The entries below come with measured Bliss excess values attached.
system: SW1271 (Small Cell Lung Carcinoma); test: Bliss excess, mean over the matrix (fraction); higher = more synergy

# compound, Bliss excess
records = [
    ("Cc1c2c(nn1C)CSCc1cc(n(C)n1)CSc1cc(c3ccccc3c1)OCCCc1c(C(=O)O)n(C)c3c-2c(Cl)ccc13 [AZD5991] + C[C@@H](Nc1cc(F)cc(F)c1)c1cc(C(=O)N(C)C)cc2c(=O)cc(N3CCOCC3)oc12 [AZD8186] (first compound max 1 µM, 7x7, partner max 3 µM)", -0.0576),
    ("Cc1cc2ncnn2cc1Nc1ncc2c(n1)n(C1CCOCC1)c(=O)n2C [AZD7648] + O=C(c1cc(Cc2n[nH]c(=O)c3ccccc23)ccc1F)N1CCN(C(=O)C2CC2)CC1 [Olaparib] (first compound max 10 µM, 7x7, partner max 10 µM)", -0.0461),
    ("Cn1cnc2c(F)c(Nc3ccc(Br)cc3Cl)c(C(=O)NOCCO)cc21 [Selumetinib] + CCN(CCO)CCCOc1ccc2c(Nc3cc(CC(=O)Nc4cccc(F)c4)[nH]n3)ncnc2c1 [AZD2811] (first compound max 10 µM, 7x7, partner max 1 µM)", -0.0324),
    ("O=C(c1cc(Cc2n[nH]c(=O)c3ccccc23)ccc1F)N1CCN(C(=O)C2CC2)CC1 [Olaparib] + CN(CC[C@H](CSC1=CC=CC=C1)NC2=C(C=C(C=C2)S(=O)(=O)NC(=O)C3=CC=C(C=C3)N4CCC(CC4)[C@H](C5=CC=CC=C5C6=CC=C(C=C6)Cl)O)S(=O)(=O)C(F)(F)F)CCO [AZD4320] (first compound max 10 µM, 7x7, partner max 1 µM)", -0.0291),
]

* * *

system: KARPAS-231 (B-Cell Non-Hodgkin's Lymphoma); test: combination Emax (second highest fraction inhibited in the dose matrix, 72 h); higher = more inhibition; extreme values may be limits of the assay

# molecule, combination Emax
records = [
    ("Cc1c2c(nn1C)CSCc1cc(n(C)n1)CSc1cc(c3ccccc3c1)OCCCc1c(C(=O)O)n(C)c3c-2c(Cl)ccc13 [AZD5991] + CC1(C)CCC(CN2CCN(c3ccc(C(=O)NS(=O)(=O)c4ccc(NCC5CCOCC5)c([N+](=O)[O-])c4)c(Oc4cnc5[nH]ccc5c4)c3)CC2)=C(c2ccc(Cl)cc2)C1 [Venetoclax] (first compound max 1 µM, 7x7, partner max 1 µM)", 1),
    ("Cc1c2c(nn1C)CSCc1cc(n(C)n1)CSc1cc(c3ccccc3c1)OCCCc1c(C(=O)O)n(C)c3c-2c(Cl)ccc13 [AZD5991] + Cc1cc2ncnn2cc1Nc1ncc2c(n1)n(C1CCOCC1)c(=O)n2C [AZD7648] (first compound max 1 µM, 7x7, partner max 10 µM)", 1),
    ("COc1cccc(OCCCN)c1-c1cc(Nc2cnc(C#N)cn2)n[nH]1 [Prexasertib] + C[C@@H]1COCCN1C2=NC(=NC(=C2)C3(CC3)[S@](=N)(=O)C)C4=C5C=CNC5=NC=C4 [AZD6738] (first compound max 1 µM, 7x7, partner max 10 µM)", 0.979),
    ("CN(CCO)CC[C@H](CSc1ccccc1)Nc1ccc(S(=O)(=O)NC(=O)c2ccc(N3CCC([C@@H](O)c4ccccc4-c4ccc(Cl)cc4)CC3)cc2)cc1S(=O)(=O)C(F)(F)F [AZD4320] + C[C@@H](Nc1cc(F)cc(F)c1)c1cc(C(=O)N(C)C)cc2c(=O)cc(N3CCOCC3)oc12 [AZD8186] (first compound max 1 µM, 7x7, partner max 3 µM)", 1),
    ("CCN(CCO)CCCOc1ccc2c(Nc3cc(CC(=O)Nc4cccc(F)c4)[nH]n3)ncnc2c1 [AZD2811] + C=CCn1c(=O)c2cnc(Nc3ccc(N4CCN(C)CC4)cc3)nc2n1-c1cccc(C(C)(C)O)n1 [AZD1775] (first compound max 1 µM, partner max 1 µM)", 0.993),
    ("NC1(C(=O)N[C@@H](CCO)c2ccc(Cl)cc2)CCN(c2ncnc3[nH]ccc23)CC1 [Capivasertib] + Cn1cnc2c(F)c(Nc3ccc(Br)cc3Cl)c(C(=O)NOCCO)cc21 [Selumetinib] (first compound max 10 µM, 7x7, partner max 10 µM)", 0.0035),
    ("Cc1nc(Nc2ncc(C(=O)Nc3c(C)cccc3Cl)s2)cc(N2CCN(CCO)CC2)n1 [Dasatinib] + CC(=O)Nc1cccc(-n2c(=O)n(C3CC3)c(=O)c3c(Nc4ccc(I)cc4F)n(C)c(=O)c(C)c32)c1 [Trametinib] (first compound max 2 µM, 7x7, partner max 1 µM)", 0.476),
    ("COc1cccc(OCCCN)c1-c1cc(Nc2cnc(C#N)cn2)n[nH]1 [Prexasertib] + O=C(c1cc(Cc2n[nH]c(=O)c3ccccc23)ccc1F)N1CCN(C(=O)C2CC2)CC1 [Olaparib] (first compound max 1 µM, 7x7, partner max 10 µM)", 0.974),
    ("CN(C)CCCOc1ccc(-c2ccc3ncc4c(c3c2)n(C2CCOCC2)c(=O)n4C)cn1 [AZD0156] + CCN(CCO)CCCOc1ccc2c(Nc3cc(CC(=O)Nc4cccc(F)c4)[nH]n3)ncnc2c1 [AZD2811] (first compound max 1 µM, 7x7, partner max 1 µM)", 0.563),
    ("CN(CCO)CC[C@H](CSc1ccccc1)Nc1ccc(S(=O)(=O)NC(=O)c2ccc(N3CCC([C@@H](O)c4ccccc4-c4ccc(Cl)cc4)CC3)cc2)cc1S(=O)(=O)C(F)(F)F [AZD4320] + Cc1cc2ncnn2cc1Nc1ncc2c(n1)n(C1CCOCC1)c(=O)n2C [AZD7648] (first compound max 1 µM, 7x7, partner max 10 µM)", 1),
    ("COc1nnc2ccc(N3CCC(c4ccc(OCCN5CCN(C)C(=O)[C@H]5C)cc4)CC3)nn12 [AZD5153] + CCN(CCO)CCCOc1ccc2c(Nc3cc(CC(=O)Nc4cccc(F)c4)[nH]n3)ncnc2c1 [AZD2811] (first compound max 1 µM, 7x7, partner max 1 µM)", 0.514),
    ("Cc1cc2ncnn2cc1Nc1ncc2c(n1)n(C1CCOCC1)c(=O)n2C [AZD7648] + C[C@@H]1COCCN1C2=NC(=NC(=C2)C3(CC3)[S@](=N)(=O)C)C4=C5C=CNC5=NC=C4 [AZD6738] (first compound max 10 µM, 7x7, partner max 10 µM)", 0.837),
    ("Cn1cnc2c(F)c(Nc3ccc(Br)cc3Cl)c(C(=O)NOCCO)cc21 [Selumetinib] + CC(C)n1c(=O)n(C)c2cnc3cc(F)c(-c4ccc(OCCCN5CCCCC5)nc4)cc3c21 [AZD1390] (first compound max 10 µM, 7x7, partner max 0.3 µM)", 0.225),
]
